Test system: barnyardgrass (Echinochloa crus-galli)
experiment: Test A postemergence, barnyardgrass
Format: in vivo
settings: Postemergence, 125 g ai/ha; visual injury approx. 10 days; 0 to 100 scale (0 no effect, 100 complete control)
Kind request: treat 20 as inclusive, so Plant response rating, Barnyardgrass at 20 or higher is satisfied, anything lower is not satisfied.

compound: CO[C@@H]1CCCN(C(=O)c2cc(NS(=O)(=O)C(F)(F)F)c(C)cc2C)C1
category: satisfied

compound: COc1cc(-c2cc(N(S(=O)(=O)C(F)(F)F)S(=O)(=O)C(F)(F)F)c(C)cc2C)c(=O)n(C)n1
category: not satisfied

compound: Cc1cc(C)c(-c2ccnn(C)c2=O)cc1NS(=O)(=O)C(F)(F)F
category: satisfied

compound: Cc1cc(C)c(-c2ccnn(CC(C)C)c2=O)cc1NS(=O)(=O)C(F)(F)F
category: not satisfied

compound: Cc1ccc(-c2ccnn(C)c2=O)cc1N(S(=O)(=O)C(F)(F)F)S(=O)(=O)C(F)(F)F
category: not satisfied

compound: Cc1cc(C)c(-c2cc(Br)nn(C)c2=O)cc1NS(=O)(=O)C(F)(F)F
category: not satisfied

compound: CSC1CCCN(C(=O)c2cc(NS(=O)(=O)C(F)(F)F)c(C)cc2C)C1 (stereo not shown)
category: satisfied

compound: Cc1ccc(=O)n(-c2cc(NS(=O)(=O)C(F)(F)F)c(C)cc2C)n1
category: satisfied

compound: Cc1cc(Cl)c(NS(=O)(=O)C(F)(F)F)cc1C(=O)N1CCOC(C)C1 (stereo not shown)
category: satisfied

compound: CSc1cc(-c2cc(NS(=O)(=O)C(F)(F)F)c(C)cc2C)c(=O)n(C)n1
category: not satisfied

compound: Cc1cc(C)c(N(S(=O)(=O)C(F)(F)F)S(=O)(=O)C(F)(F)F)cc1-c1cn(C)c(=O)n(C)c1=O
category: satisfied

compound: COCC1(COC)CC(c2cc(NS(=O)(=O)C(F)(F)F)c(C)cc2C)=NO1
category: satisfied

compound: Cc1cc(C(=O)N2CCOC(C)(C)C2)cc(NS(=O)(=O)C(F)(F)F)c1Cl
category: satisfied

compound: Cc1cc(C(F)(F)F)c(C(=O)N(C)C)cc1NS(=O)(=O)C(F)(F)F
category: not satisfied

* * *

Tested on: ragweed (common ragweed, Ambrosia artemisiifolia)
experiment: Test A preemergence, ragweed
Assay type: in vivo
settings: Preemergence, 125 g ai/ha; visual injury on 0 to 100 scale (0 no effect, 100 complete control), approximately 10 days
Rule: true for Ragweed plant response rating not less than 20, false for anything less.

molecule: Cc1cc(C)c(-c2ccnn(C(C)C)c2=O)cc1NS(=O)(=O)C(F)(F)F
category: true

molecule: Cc1cc(C)c(N(S(=O)(=O)C(F)(F)F)S(=O)(=O)C(F)(F)F)cc1C1=NOC2(CCC3(CC2)OCCO3)C1
category: true

molecule: Cc1cc(C)c(C2=NOC3(CCC4(CC3)OCCO4)C2)cc1NS(=O)(=O)C(F)(F)F
category: false

molecule: CO[C@@H]1CCCN(C(=O)c2cc(NS(=O)(=O)C(F)(F)F)c(C)cc2C)C1
category: true

molecule: Cc1cc(C)c(C(=O)N2CCCC(F)C2)cc1NS(=O)(=O)C(F)(F)F (stereo not shown)
category: true

molecule: COC1CCCN(C(=O)c2cc(N(C(C)=O)S(=O)(=O)C(F)(F)F)c(C)cc2C)C1 (stereo not shown)
category: true

molecule: Cc1cc(C)c(C2=NOC3(CCSCC3)C2)cc1NS(=O)(=O)C(F)(F)F
category: true

molecule: Cc1cc(C)c(-c2ccnn(CC(C)C)c2=O)cc1NS(=O)(=O)C(F)(F)F
category: false

molecule: Cc1cc(Cl)c(NS(=O)(=O)C(F)(F)F)cc1C(=O)N1CCOCC1(C)C
category: true

molecule: CCn1nccc(-c2cc(NS(=O)(=O)C(F)(F)F)c(C)cc2C)c1=O
category: true

molecule: COC1CCCN(C(=O)c2cc(NS(=O)(=O)C(F)(F)F)c(C)c(F)c2C)C1 (stereo not shown)
category: true

molecule: Cc1cc(C#N)c(C(=O)N2CCCCC2)cc1NS(=O)(=O)C(F)(F)F
category: false

molecule: Cc1cc(C)c(N(S(=O)(=O)C(F)(F)F)S(=O)(=O)C(F)(F)F)cc1-c1cc(C(F)(F)F)nn(C)c1=O
category: false

molecule: CCn1nc(C)cc(-c2cc(NS(=O)(=O)C(F)(F)F)c(C)cc2C)c1=O
category: true

molecule: Cc1cc(C)c(N(S(C)(=O)=O)S(=O)(=O)C(F)(F)F)cc1-c1cc(Cl)nn(C)c1=O
category: false

molecule: CCn1c(=O)c(-c2cc(NS(=O)(=O)C(F)(F)F)c(C)cc2C)cn(C)c1=O
category: true

molecule: Cc1cc(C)c(C2=NOC3(C2)CC(C)CC(C)C3)cc1NS(=O)(=O)C(F)(F)F (single isomer, unassigned)
category: false

molecule: CCC(C)C(=O)OCN(c1cc(C2=NOC3(CCCC3)C2)c(C)cc1C)S(=O)(=O)C(F)(F)F (stereo not shown)
category: true

molecule: Cc1cc(Cl)c(NS(=O)(=O)C(F)(F)F)cc1C(=O)N1CCOC(C)C1 (stereo not shown)
category: true

molecule: CCc1cc(-c2cc(N(S(=O)(=O)C(F)(F)F)S(=O)(=O)C(F)(F)F)c(C)cc2C)c(=O)n(C)n1
category: false

molecule: Cc1cc(Cl)c(N(S(=O)(=O)C(F)(F)F)S(=O)(=O)C(F)(F)F)cc1-c1cn(C)c(=O)n(C)c1=O
category: true

molecule: C#CCN(C)C(=O)c1cc(N(S(=O)(=O)C(F)(F)F)S(=O)(=O)C(F)(F)F)c(C)c(F)c1C
category: true

molecule: Cc1cc(C)c(N(S(=O)(=O)C(F)(F)F)S(=O)(=O)C(F)(F)F)cc1N1CC2(CCOCC2)OC1=O
category: true

molecule: Cc1cc(C)c(N(COC(=O)C2CCCC2)S(=O)(=O)C(F)(F)F)cc1C1=NOC2(CCCC2)C1
category: false

molecule: Cc1c(NS(=O)(=O)C(F)(F)F)cc(C(=O)N2CC(C)OC(C)C2)c(C)c1F (stereo not shown)
category: false

molecule: Cc1cc(C)c(N(COC(=O)CC(C)C)S(=O)(=O)C(F)(F)F)cc1C1=NOC2(CCCC2)C1
category: true

* * *

System: blackgrass (Alopecurus myosuroides)
experiment: Test A1 postemergence, blackgrass
Assay type: in vivo
settings: 31 g ai/ha, postemergence; 0 to 100 scale (0 no effect, 100 complete control)
observable: Blackgrass plant response rating

molecule: Cc1cc(C)c(N(COC(=O)C(C)(C)C)S(=O)(=O)C(F)(F)F)cc1N1CCC2(CCC(C)CC2)C1=O (stereo not drawn)
measured target: blackgrass (Alopecurus myosuroides)
observable: Blackgrass plant response rating
recorded value: 0
//
molecule: Cc1cc(C)c(N(COC(=O)C(C)(C)C)S(=O)(=O)C(F)(F)F)cc1N1CCC2(CCC(C(F)(F)F)CC2)C1=O (stereo not drawn)
measured target: blackgrass (Alopecurus myosuroides)
observable: Blackgrass plant response rating
recorded value: 0
//
molecule: Cc1cc(C)c(N(S(=O)(=O)C(F)(F)F)S(=O)(=O)C(F)(F)F)cc1N1CCC2(CCC(C(F)(F)F)CC2)C1=O (stereo not drawn)
measured target: blackgrass (Alopecurus myosuroides)
observable: Blackgrass plant response rating
recorded value: 40
//
molecule: CCOc1cccc2c1C(=O)N(c1cc(N(COC(=O)C(C)(C)C)S(=O)(=O)Cl)c(C)cc1C)C2
measured target: blackgrass (Alopecurus myosuroides)
observable: Blackgrass plant response rating
recorded value: 0
//
molecule: COc1cccc2c1C(=O)N(c1cc(N(COC(=O)C(C)(C)C)S(=O)(=O)Cl)c(C)cc1C)C2
measured target: blackgrass (Alopecurus myosuroides)
observable: Blackgrass plant response rating
recorded value: 0
//
molecule: Cc1cc(C)c(N2Cc3cccc(Br)c3C2=O)cc1NS(=O)(=O)Cl
measured target: blackgrass (Alopecurus myosuroides)
observable: Blackgrass plant response rating
recorded value: 0

* * *

Tested on: Foxtail, Giant (giant foxtail, Setaria faberi)
experiment: Test A postemergence, Foxtail, Giant
Format: in vivo
settings: Postemergence, 125 g ai/ha; 0 to 100 scale (0 no effect, 100 complete control)

molecule: COC1CCN(C(=O)c2cc(NS(=O)(=O)C(F)(F)F)c(Cl)cc2C)CC1 [Compound 246]
Plant response rating, Foxtail, Giant: 60
//
molecule: Cc1cc(C)c(C2=NOC3(CCCCCC3)C2)cc1NS(=O)(=O)C(F)(F)F [Compound 277]
Plant response rating, Foxtail, Giant: 30
//
molecule: Cc1cc(C)c(C2=NOC3(CCSCC3)C2)cc1NS(=O)(=O)C(F)(F)F [Compound 176]
Plant response rating, Foxtail, Giant: 90
//
molecule: Cc1cc(C)c(N(COC(=O)CC(C)C)S(=O)(=O)C(F)(F)F)cc1C1=NOC2(CCCC2)C1 [Compound 152]
Plant response rating, Foxtail, Giant: 10
//
molecule: Cc1cc(Cl)c(C(=O)N2CCOCC2)cc1N(S(=O)(=O)C(F)(F)F)S(=O)(=O)C(F)(F)F [Compound 250]
Plant response rating, Foxtail, Giant: 0
//
molecule: C#CCN(C)C(=O)c1cc(N(S(=O)(=O)C(F)(F)F)S(=O)(=O)C(F)(F)F)c(C)c(F)c1C [Compound 147]
Plant response rating, Foxtail, Giant: 70
//
molecule: Cc1cc(Cl)c(C2=NOC3(CCCC3)C2)cc1NS(=O)(=O)C(F)(F)F [Compound 185]
Plant response rating, Foxtail, Giant: 0
